Experiment: NCI Yeast Anticancer Drug Screen. Data for the mec2-1 strain (AID 157)
Details: S. cerevisiae mec2-1 strain, at 50.0 µM
Compounds without any hit were thinned out: in the full panel of roughly 79,000, 15% have a hit. The source made the active and inactive calls. No stated cut-off is given here; in the data, active means growth inhibition above about 70%; inactive means the rest.
Allowed answers: Y (active), N (inactive)

Q. Hey, what did the test say about Cc1ccc(C2(O)c3ccccc3-c3ccccc32)cc1 ?
A. Y

Q. Hey, what did the test say about O=C(O)/C=C/C(=O)Nc1cccc2c1C(=O)c1ccccc1-2 ?
A. Y

Q. Hey, what did the test say about CC(=NCC(=O)O)c1ccccc1 ?
A. N

Q. Hey, what did the test say about COc1ccc(-n2c3c(c4c(N)ncnc42)CCCC3)cc1 ?
A. N

Q. Hey, what did the test say about COc1cccc(OC)c1C(=O)/C=C/c1ccccc1 ?
A. N
